From: paper PMC12720125

Biological target: lymphoid-specific helicase (LSH) (Homo sapiens)
Assay: SPR
Assay type: binding
experimentalEndpoint: pKd
Scale: pKd equals -log10([C]), with [C] in mol/L.

Could you share which pKd value was measured for C=C1C(=O)O[C@@H]2O[C@@]3(C)CC[C@H]4[C@H](C)CC[C@@H]1[C@@]24OO3 ?
5.21

----------
Target: lymphoid-specific helicase (LSH) (Homo sapiens, UniProt Q9NRZ9)
Sequence (Q9NRZ9 whole entry): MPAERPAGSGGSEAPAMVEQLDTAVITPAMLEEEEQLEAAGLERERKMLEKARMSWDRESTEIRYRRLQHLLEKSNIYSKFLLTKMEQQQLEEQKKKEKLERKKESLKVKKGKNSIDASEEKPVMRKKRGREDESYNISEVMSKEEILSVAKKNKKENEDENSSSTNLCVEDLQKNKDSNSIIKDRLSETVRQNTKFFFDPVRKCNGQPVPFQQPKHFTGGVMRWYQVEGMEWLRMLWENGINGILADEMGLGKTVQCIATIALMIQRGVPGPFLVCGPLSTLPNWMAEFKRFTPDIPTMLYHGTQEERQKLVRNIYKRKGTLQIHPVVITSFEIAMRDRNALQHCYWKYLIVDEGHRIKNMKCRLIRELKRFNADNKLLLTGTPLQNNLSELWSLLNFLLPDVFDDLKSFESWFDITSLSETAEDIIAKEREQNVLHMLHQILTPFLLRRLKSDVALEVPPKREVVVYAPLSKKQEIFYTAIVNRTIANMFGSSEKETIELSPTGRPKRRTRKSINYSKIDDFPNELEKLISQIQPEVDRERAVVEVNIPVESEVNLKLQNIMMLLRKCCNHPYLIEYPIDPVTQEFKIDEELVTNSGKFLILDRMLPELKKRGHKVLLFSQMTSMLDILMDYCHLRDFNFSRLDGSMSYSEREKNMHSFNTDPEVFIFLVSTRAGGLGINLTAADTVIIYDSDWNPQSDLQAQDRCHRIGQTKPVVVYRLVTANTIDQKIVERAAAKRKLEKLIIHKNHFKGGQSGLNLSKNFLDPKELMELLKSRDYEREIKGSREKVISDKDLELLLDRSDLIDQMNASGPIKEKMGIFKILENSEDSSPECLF
Experiment: KD determination, SPR
Type: binding
experimentalEndpoint: Kd
Give your result as the value with the unit written after it.

Requested read-out Kd, target or system lymphoid-specific helicase (LSH) (Homo sapiens, UniProt Q9NRZ9), entry C[C@@H]1CC[C@H]2[C@@H](C)C(=O)O[C@@H]3O[C@@]4(C)CC[C@@H]1[C@]32OO4 [artemisinin]
32.2 µM
